Let's look at some compounds and their measured melting point.
Structures can show the parent of a compound that is named as a salt.
Field format: number, assumed °C, no unit text.

Here are 5 compounds together with their reported answers.
Task item: Dear colleague, I am looking for the recorded melting point of the following compound: COc1cc(OC)cc(N(CC2CC2)c2ccc3ncc(-n4nccc4C)nc3c2)c1 [Compound 62]
Reply: 139

Task item: Dear colleague, I am looking for the recorded melting point of the following compound: COc1cc(OC)cc(N(CC2CC2)c2ccc3ncc(N4CCOCC4)nc3c2)c1 [Compound 63]
Reply: 114

Task item: Dear colleague, I am looking for the recorded melting point of the following compound: COc1cc(OC)cc(N(CCCO)c2ccc3ncc(-c4ccnc(Cl)c4)nc3c2)c1 [Compound 136]
Reply: 175

Task item: Dear colleague, I am looking for the recorded melting point of the following compound: COc1cc(OC)cc(N(CCCO)c2ccc3ncc(-c4ccc(N(C)C(=O)OC(C)(C)C)nc4)nc3c2)c1 [Compound 125]
Reply: 143

Task item: Dear colleague, I am looking for the recorded melting point of the following compound: COc1cc(OC)cc(N(Cc2cccc(CN)n2)c2ccc3ncc(-c4ccc(N)nc4)nc3c2)c1 (as salt: HCl) [Compound 51]
Reply: 170

New cases:
Task item: Dear colleague, I am looking for the recorded melting point of the following compound: COc1cc(OC)cc(N(CC2CC2)c2ccc3ncc(C#Cc4ccncc4)nc3c2)c1 [Compound 23]
Reply: 60

Task item: Dear colleague, I am looking for the recorded melting point of the following compound: COc1cc(OC)cc(N(CCO)c2ccc3ncc(-c4ccccc4)nc3c2)c1 [Compound 120]
Reply: 124

Task item: Dear colleague, I am looking for the recorded melting point of the following compound: COc1cc(OC)cc(N(CCNC(C)C)c2ccc3ncc(-c4ccncc4)nc3c2)c1 [Compound 12]
Reply: 118

====

molecular target: Ba/F3-KDR-transfected cells (Homo sapiens); test: Ba/F3-KDR (minus IL3) cellular proliferation assay, Alamar Blue; type: cell-based; settings: minus IL3
Let's look at some compounds and their measured BAF3-KDR (MIN IL3) 384 well pIC50.

Task item: // fetch Ba/F3-KDR-transfected cells (Homo sapiens) BAF3-KDR (MIN IL3) 384 well pIC50 for COc1cc(OC)cc(N(CCNC(C)C)c2ccc3ncc(NCC4CCNCC4)nc3c2)c1 [Compound 161]
Reply: <5

Task item: // fetch Ba/F3-KDR-transfected cells (Homo sapiens) BAF3-KDR (MIN IL3) 384 well pIC50 for COc1cc(OC)cc(N(CC2CC2)c2ccc3ncc(-n4cccn4)nc3c2)c1 [Compound 95]
Reply: <5

====

biological target: Ba/F3-KDR-transfected cells (Homo sapiens, UniProt P35968); experiment: Ba/F3-KDR (minus IL3) cellular proliferation assay, Alamar Blue; format: cell-based; details: minus IL3
Sequence (P35968 whole entry, change not shown): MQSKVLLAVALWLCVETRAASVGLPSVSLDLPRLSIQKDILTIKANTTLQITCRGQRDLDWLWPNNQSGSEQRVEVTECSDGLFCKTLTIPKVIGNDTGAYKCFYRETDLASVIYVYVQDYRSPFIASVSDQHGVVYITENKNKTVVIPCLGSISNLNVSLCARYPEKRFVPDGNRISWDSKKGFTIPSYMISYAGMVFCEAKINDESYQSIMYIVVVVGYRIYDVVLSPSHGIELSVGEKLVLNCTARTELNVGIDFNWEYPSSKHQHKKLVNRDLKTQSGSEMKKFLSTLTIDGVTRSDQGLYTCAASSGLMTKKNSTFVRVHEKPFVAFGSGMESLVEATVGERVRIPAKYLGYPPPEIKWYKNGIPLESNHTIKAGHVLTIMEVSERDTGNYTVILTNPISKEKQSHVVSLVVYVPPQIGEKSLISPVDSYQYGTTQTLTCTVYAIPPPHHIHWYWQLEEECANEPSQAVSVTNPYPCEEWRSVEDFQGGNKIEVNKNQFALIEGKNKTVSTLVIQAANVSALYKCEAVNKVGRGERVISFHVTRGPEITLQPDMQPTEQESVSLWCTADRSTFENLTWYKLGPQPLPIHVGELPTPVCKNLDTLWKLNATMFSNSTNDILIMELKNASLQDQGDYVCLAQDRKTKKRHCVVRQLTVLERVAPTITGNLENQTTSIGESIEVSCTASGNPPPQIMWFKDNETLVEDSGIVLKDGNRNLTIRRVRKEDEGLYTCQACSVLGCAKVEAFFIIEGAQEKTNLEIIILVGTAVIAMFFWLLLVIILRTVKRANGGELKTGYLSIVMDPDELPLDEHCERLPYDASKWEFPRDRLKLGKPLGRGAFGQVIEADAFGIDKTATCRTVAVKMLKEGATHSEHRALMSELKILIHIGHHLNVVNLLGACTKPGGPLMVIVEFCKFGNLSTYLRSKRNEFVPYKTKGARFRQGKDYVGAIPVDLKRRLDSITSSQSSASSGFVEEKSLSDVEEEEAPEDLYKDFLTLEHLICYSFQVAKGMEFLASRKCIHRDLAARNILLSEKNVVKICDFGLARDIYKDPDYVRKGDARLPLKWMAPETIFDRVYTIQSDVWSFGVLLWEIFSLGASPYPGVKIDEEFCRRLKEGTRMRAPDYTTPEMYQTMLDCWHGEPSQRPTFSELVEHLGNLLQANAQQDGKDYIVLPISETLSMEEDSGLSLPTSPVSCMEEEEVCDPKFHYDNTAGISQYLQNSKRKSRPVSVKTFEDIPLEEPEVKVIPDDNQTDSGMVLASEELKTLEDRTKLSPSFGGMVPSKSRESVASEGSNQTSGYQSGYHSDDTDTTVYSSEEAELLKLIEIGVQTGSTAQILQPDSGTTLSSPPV
Let's look at some compounds and their measured BAF3-KDR (MIN IL3) 384 well pIC50.

Here are 4 compounds together with their reported answers.
Task item: Dear colleague, I am looking for the recorded BAF3-KDR (MIN IL3) 384 well pIC50 of the following compound: COc1cc(OC)cc(N(CCO)c2ccc3ncc(-c4ccnc(C(=O)NCCCCCO)c4)nc3c2)c1
Reply: <5

Task item: Dear colleague, I am looking for the recorded BAF3-KDR (MIN IL3) 384 well pIC50 of the following compound: COc1cc(OC)cc(N(CCNC(C)C)c2ccc3ncc(-c4ccc(N5CCN(C)CC5)nc4)nc3c2)c1
Reply: <5

Task item: Dear colleague, I am looking for the recorded BAF3-KDR (MIN IL3) 384 well pIC50 of the following compound: COc1cc(OC)cc(N(CCCO)c2ccc3ncc(-c4ccnc(Cl)c4)nc3c2)c1
Reply: <5

Task item: Dear colleague, I am looking for the recorded BAF3-KDR (MIN IL3) 384 well pIC50 of the following compound: COc1cc(OC)cc(N(CC2CC2)c2ccc3ncc(-c4cn(CCO)nn4)nc3c2)c1
Reply: <5

New cases:
Task item: Dear colleague, I am looking for the recorded BAF3-KDR (MIN IL3) 384 well pIC50 of the following compound: COc1cc(OC)cc(N(CCO)c2ccc3ncc(N4CCC(CN)CC4)nc3c2)c1
Reply: <5

Task item: Dear colleague, I am looking for the recorded BAF3-KDR (MIN IL3) 384 well pIC50 of the following compound: COc1cc(OC)cc(N(CC(O)C(F)(F)F)c2ccc3ncc(-c4cccnc4)nc3c2)c1 (single isomer, unassigned) [Compound 54]
Reply: <5

====

biological target: Ba/F3-KDR-transfected cells (Homo sapiens, UniProt P35968); assay: Ba/F3-KDR (minus IL3) cellular proliferation assay, Alamar Blue; format: cell-based; settings: minus IL3
READOUT LABEL: BAF3-KDR (MIN IL3) 384 well pIC50

Here are 10 compounds together with their reported answers.
Task item: Dear colleague, I am looking for the recorded BAF3-KDR (MIN IL3) 384 well pIC50 of the following compound: COc1cc(OC)cc(N(CC2CC2)c2ccc3ncc(-c4ccn(C)c4)nc3c2)c1
Reply: 5.07

Task item: Dear colleague, I am looking for the recorded BAF3-KDR (MIN IL3) 384 well pIC50 of the following compound: COc1cc(OC)cc(N(CCO)c2ccc3ncc(-c4ccccc4)nc3c2)c1
Reply: <5

Task item: Dear colleague, I am looking for the recorded BAF3-KDR (MIN IL3) 384 well pIC50 of the following compound: COc1cc(OC)cc(N(CCNC(C)C)c2ccc3ncc(-c4ccccc4)nc3c2)c1
Reply: ~5.3

Task item: Dear colleague, I am looking for the recorded BAF3-KDR (MIN IL3) 384 well pIC50 of the following compound: COc1cc(OC)cc(N(CCNC(C)C)c2ccc3ncc(-c4ccc(N)nc4)nc3c2)c1
Reply: 5.82

Task item: Dear colleague, I am looking for the recorded BAF3-KDR (MIN IL3) 384 well pIC50 of the following compound: COc1cc(OC)cc(N(CCNC(C)C)c2ccc3ncc(C(=O)NCCN4CCOCC4)nc3c2)c1
Reply: <5

Task item: Dear colleague, I am looking for the recorded BAF3-KDR (MIN IL3) 384 well pIC50 of the following compound: COc1cc(OC)cc(N(CCO)c2ccc3ncc(-c4ccnc(C(=O)NCCCN)c4)nc3c2)c1
Reply: <5

Task item: Dear colleague, I am looking for the recorded BAF3-KDR (MIN IL3) 384 well pIC50 of the following compound: COc1cc(OC)cc(N(CCCO)c2ccc3ncc(-c4ccc(N5CCNCC5)nc4)nc3c2)c1
Reply: 5.39

Task item: Dear colleague, I am looking for the recorded BAF3-KDR (MIN IL3) 384 well pIC50 of the following compound: COc1cc(OC)cc(N(CCN)c2ccc3ncc(-c4ccn(C)c4)nc3c2)c1
Reply: 5.45

Task item: Dear colleague, I am looking for the recorded BAF3-KDR (MIN IL3) 384 well pIC50 of the following compound: COc1cc(OC)cc(N(CCO)c2ccc3ncc(-c4cccnc4)nc3c2)c1
Reply: 5.12

Task item: Dear colleague, I am looking for the recorded BAF3-KDR (MIN IL3) 384 well pIC50 of the following compound: COC(=O)C1CCCN1c1cnc2ccc(N(CCO)c3cc(OC)cc(OC)c3)cc2n1 (stereo not shown)
Reply: <5

New cases:
Task item: Dear colleague, I am looking for the recorded BAF3-KDR (MIN IL3) 384 well pIC50 of the following compound: COc1cc(OC)cc(N(CC2CC2)c2ccc3ncc(N4CCN(CCO)CC4)nc3c2)c1
Reply: <5

Task item: Dear colleague, I am looking for the recorded BAF3-KDR (MIN IL3) 384 well pIC50 of the following compound: COc1cc(OC)cc(N(CC2CC2)c2ccc3ncc(NC(=O)c4ccc(F)cc4)nc3c2)c1
Reply: <5

Task item: Dear colleague, I am looking for the recorded BAF3-KDR (MIN IL3) 384 well pIC50 of the following compound: COc1cc(OC)cc(N(CC2CC2)c2ccc3ncc(-c4ccn(CCO)c4)nc3c2)c1
Reply: ~5

Task item: Dear colleague, I am looking for the recorded BAF3-KDR (MIN IL3) 384 well pIC50 of the following compound: COc1cc(OC)cc(N(CC2CC2)c2ccc3ncc(-c4cn(C)cn4)nc3c2)c1
Reply: <5

Task item: Dear colleague, I am looking for the recorded BAF3-KDR (MIN IL3) 384 well pIC50 of the following compound: COc1cc(OC)cc(N(CCNC(C)C)c2ccc3ncc(-c4ccnc(C(=O)NCCCN)c4)nc3c2)c1
Reply: <5

Task item: Dear colleague, I am looking for the recorded BAF3-KDR (MIN IL3) 384 well pIC50 of the following compound: COc1cc(OC)cc(N(CCNC(C)C)c2ccc3ncc(-c4ccnn4C4CCCCO4)nc3c2)c1 (stereo not shown)
Reply: 5.14

====

Let's look at some molecules and their measured BAF3-FGFR 1 (MIN IL3) 384 well pIC50.
Target: Ba/F3-FGFR1-transfected cells (Homo sapiens)
Sequence (P11362 whole entry, change not shown): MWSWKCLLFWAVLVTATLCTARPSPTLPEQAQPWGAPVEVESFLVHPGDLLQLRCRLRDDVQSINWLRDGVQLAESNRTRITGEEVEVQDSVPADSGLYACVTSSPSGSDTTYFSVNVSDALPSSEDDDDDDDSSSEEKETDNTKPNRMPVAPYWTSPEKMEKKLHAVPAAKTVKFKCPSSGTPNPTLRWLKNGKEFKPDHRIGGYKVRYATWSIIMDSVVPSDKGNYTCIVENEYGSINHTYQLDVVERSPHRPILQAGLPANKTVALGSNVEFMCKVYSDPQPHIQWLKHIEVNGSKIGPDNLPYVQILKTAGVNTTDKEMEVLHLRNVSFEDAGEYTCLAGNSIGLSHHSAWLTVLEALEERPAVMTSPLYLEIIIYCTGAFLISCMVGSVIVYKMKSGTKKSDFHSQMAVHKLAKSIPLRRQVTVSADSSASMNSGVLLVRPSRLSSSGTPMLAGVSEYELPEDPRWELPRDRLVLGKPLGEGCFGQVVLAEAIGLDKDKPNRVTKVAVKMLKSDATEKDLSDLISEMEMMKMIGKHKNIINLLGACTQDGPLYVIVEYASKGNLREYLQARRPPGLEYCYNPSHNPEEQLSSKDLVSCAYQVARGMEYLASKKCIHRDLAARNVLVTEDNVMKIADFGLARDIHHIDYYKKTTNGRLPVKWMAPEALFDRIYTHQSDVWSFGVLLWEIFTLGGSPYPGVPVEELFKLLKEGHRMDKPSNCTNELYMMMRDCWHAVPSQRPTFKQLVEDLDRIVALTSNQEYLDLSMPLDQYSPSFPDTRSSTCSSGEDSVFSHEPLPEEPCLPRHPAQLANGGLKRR
Experiment: Ba/F3-FGFR1 (minus IL3) cellular proliferation assay, Alamar Blue
Assay type: cell-based
Details: minus IL3, 384 well
Method: Ba/F3-FGFR1 (Minus IL3 or Plus IL3) (Cellular Proliferation Assay) Cells were put in an incubator at 37° C. and 5% CO2. After 24 hours, 10 μl of Alamar Blue solution (0.5 mM K3Fe(CN)6, 0.5 mM KaFe(CN)6, 0.15 mM Resazurin and 100 mM Phosphate Buffer) was added to the wells, incubated for 4 hours at 37° C. and 5% CO2 before RFU's (Relative Fluorescence Units) (ex. 540 nm., em. 590 nm.) were measured in a flurorescence plate reader. […]

Task item: Dear colleague, I am looking for the recorded BAF3-FGFR 1 (MIN IL3) 384 well pIC50 of the following molecule: CNCCN(c1cc(OC)cc(OC)c1)c1ccc2ncc(-c3ccc(NC(=O)OC(C)(C)C)nc3)nc2c1 [Compound 81]
Reply: 5.66

New cases:
Task item: Dear colleague, I am looking for the recorded BAF3-FGFR 1 (MIN IL3) 384 well pIC50 of the following molecule: COc1cc(OC)cc(N(CC2CC2)c2ccc3ncc(NC(=O)c4ccc(F)cc4)nc3c2)c1 [Compound 28]
Reply: <5

Task item: Dear colleague, I am looking for the recorded BAF3-FGFR 1 (MIN IL3) 384 well pIC50 of the following molecule: COc1cc(OC)cc(N(CC2CC2)c2ccc3ncc(-c4cnnn4C)nc3c2)c1 [Compound 72]
Reply: 5.18

Task item: Dear colleague, I am looking for the recorded BAF3-FGFR 1 (MIN IL3) 384 well pIC50 of the following molecule: COc1cc(OC)cc(N(CC2CC2)c2ccc3ncc(-c4cccc(N5CCOCC5)c4)nc3c2)c1 [Compound 92]
Reply: <5
